measurement label: Ki (nM)
Lab book: enter the figure in nM, no units written.

# return Ki of Cc1ccc(-n2nccn2)c(C(=O)N2C(C)C3CC(Nc4cnc(C(F)(F)F)cn4)C2C3)n1 (single isomer, unassigned) [Example 6B] (system: UniProt O43614)
154

# return Ki of C[C@@H]1[C@H]2C[C@@H](Nc3ccc(C(F)(F)F)cn3)[C@H](C2)N1C(=O)c1ncccc1-c1ncccn1 (relative stereo) (system: UniProt O43614)
360

# return Ki of CC1C2CC(Nc3cnc(C(F)(F)F)cn3)C(C2)N1C(=O)c1ccccc1-n1nccn1 (single isomer, unassigned) [Example 5B] (system: UniProt O43614)
146

----------
measurement label: Ki (nM)
Lab book: enter the figure in nM, no units written.

# return Ki of C[C@@H]1[C@@H]2CC[C@@H]([C@@H](Oc3ccc(C(F)(F)F)cn3)C2)N1C(=O)c1cccc(F)c1-c1ncccn1 [Example 162] (system: UniProt O43613)
106

# return Ki of [2H]C1([2H])[C@H]2C[C@@H]([C@@H]1Oc1ccc(Cl)cn1)N(C(=O)c1ccccc1-n1nccn1)[C@@H]2C [Example 195] (system: UniProt O43613)
4

# return Ki of C[C@@H]1[C@H]2C[C@@H](Oc3cnc(C(F)(F)F)cn3)[C@H](C2)N1C(=O)c1cccc(F)c1-n1nccn1 (relative stereo) [Example 52] (system: UniProt O43613)
14

# return Ki of CC1C2CC(Oc3ccc(C(F)(F)F)cn3)C(C2)N1C(=O)c1ccccc1-c1ncc(F)cn1 (racemic) [Example 19] (system: UniProt O43613)
29

----------
Data export: log10 of Ki values recorded with human orexin 2 receptor (Homo sapiens (Human), UniProt O43614).
Sequence (O43614 whole entry): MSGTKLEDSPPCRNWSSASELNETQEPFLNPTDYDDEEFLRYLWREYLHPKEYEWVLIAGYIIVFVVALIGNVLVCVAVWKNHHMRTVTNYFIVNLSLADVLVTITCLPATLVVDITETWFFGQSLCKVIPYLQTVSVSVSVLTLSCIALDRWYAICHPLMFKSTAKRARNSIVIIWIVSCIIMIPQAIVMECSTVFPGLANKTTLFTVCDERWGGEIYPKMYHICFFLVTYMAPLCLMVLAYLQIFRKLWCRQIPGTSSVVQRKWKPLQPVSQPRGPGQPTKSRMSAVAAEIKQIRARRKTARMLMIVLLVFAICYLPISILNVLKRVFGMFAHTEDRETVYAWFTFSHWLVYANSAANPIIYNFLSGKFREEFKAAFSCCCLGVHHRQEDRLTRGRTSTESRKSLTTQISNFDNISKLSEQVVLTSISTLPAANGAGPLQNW
Base-10 log of Ki, unit µM.

Specify measured log10 of Ki for `C[C@@H]1[C@H]2C[C@@H](Oc3ccc(C(F)(F)F)cn3)[C@H](C2)N1C(=O)c1ccccc1-c1ncc(OCCF)cn1` .
0.60

Specify measured log10 of Ki for C[C@@H]1[C@H]2C[C@@H](Oc3cnc4cc(F)c(F)cc4n3)[C@H](C2)N1C(=O)c1ccccc1-n1nccn1 (relative stereo) .
-1.14

Specify measured log10 of Ki for Cc1cnc(C(=O)N2[C@H](C)[C@H]3C[C@@H](Oc4ccc(C(F)(F)F)cn4)[C@@H]2C3)c(-c2ncccc2F)c1 (relative stereo) .
0.80

Specify measured log10 of Ki for Cc1ccc(-n2nccn2)c(C(=O)N2C(C)C3CC(Nc4cnc(C(F)(F)F)cn4)C2C3)n1 (single isomer, unassigned) [Example 69B] .
-0.63

Specify measured log10 of Ki for CC(C)CC1C2CC(Oc3ccc(C(F)(F)F)cn3)C(C2)N1C(=O)c1cccc(F)c1-c1ncccn1 (racemic) .
0.52

Specify measured log10 of Ki for `C[C@@H]1[C@@H]2CC[C@@H]([C@H](Oc3ccc(C(F)(F)F)cn3)C2)N1C(=O)c1ccccc1-n1nccn1` .
0.78

----------
Data export: pKi values recorded with human orexin 1 receptor (Homo sapiens (Human), UniProt O43613).
Sequence (O43613 whole entry): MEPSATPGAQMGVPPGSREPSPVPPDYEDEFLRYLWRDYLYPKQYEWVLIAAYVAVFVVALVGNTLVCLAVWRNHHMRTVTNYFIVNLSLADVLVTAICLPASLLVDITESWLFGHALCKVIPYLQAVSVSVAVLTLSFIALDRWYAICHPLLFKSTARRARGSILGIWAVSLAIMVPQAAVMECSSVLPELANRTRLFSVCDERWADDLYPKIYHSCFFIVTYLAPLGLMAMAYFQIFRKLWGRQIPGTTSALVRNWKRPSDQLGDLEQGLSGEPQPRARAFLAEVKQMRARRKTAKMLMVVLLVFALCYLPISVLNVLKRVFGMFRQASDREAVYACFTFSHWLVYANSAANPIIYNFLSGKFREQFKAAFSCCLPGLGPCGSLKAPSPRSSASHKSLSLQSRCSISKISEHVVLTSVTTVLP
Note: pKi values are expressed as the negative base-10 logarithm of concentration in M.

Specify measured pKi for `O=C(c1ccccc1-c1ncccn1)N1[C@H](CF)[C@@H]2CC[C@H]1[C@H](Oc1ccc(C(F)(F)F)cn1)C2` .
7.18

Specify measured pKi for `Cc1ccc(-n2nccn2)c(C(=O)N2[C@H](CF)[C@@H]3CC[C@H]2[C@H](Oc2ccc(C(F)(F)F)cn2)C3)n1` .
7.70

Specify measured pKi for C[C@@H]1[C@H]2C[C@@H](Oc3ccc(C(F)(F)F)cn3)[C@H](C2)N1C(=O)c1cccc(F)c1-n1nccn1 (relative stereo) .
8.10

Specify measured pKi for C[C@@H]1[C@H]2C[C@@H](Oc3ccc(C(F)(F)F)cn3)[C@H](C2)N1C(=O)c1ccc(F)cc1-n1nccn1 (relative stereo) .
8.30

Specify measured pKi for CC(C)CC1C2CC(Oc3ccc(C(F)(F)F)cn3)C(C2)N1C(=O)c1ccccc1-c1ncc(F)cn1 (racemic) .
7.26

Specify measured pKi for `O=C(c1cc(F)ccc1-c1ncccn1)N1[C@H](CF)[C@@H]2CC[C@H]1[C@H](Oc1ccc(C(F)(F)F)cn1)C2` .
7.34
